test system: MDA-N; test: NCI tumour cell line growth inhibition, 48 h
endpoint: TGI (µM)
Write the number in µM without appending the unit.

Recorded TGI, per entry:
CC(=O)Oc1ccc2cc(Oc3cc(Cl)c(Cl)cc3Cl)c(=O)oc2c1: 30.6
CCOC(=O)N1c2ccccc2C(C)=CC(C)C1C (centres undefined): 27.3
c1ccc(C(Oc2noc3ccccc23)c2ccccc2)cc1: 67.2

IN: Which value of TGI has been reported for Nc1cccc(-c2cc(=O)c3cc4c(cc3[nH]2)OCO4)c1 in the records?
OUT: 0.474

IN: Which value of TGI has been reported for COc1cc(/C=C(\C)[N+](=O)[O-])cc(OC)c1 in the records?
OUT: 17.5

IN: Which value of TGI has been reported for COC(=O)[C@@H]1c2c(oc3cc(CO)cc(O)c3c2=O)C=C[C@H]1O in the records?
OUT: 18.9

====

system: MCF7 breast; test: NCI tumour cell line growth inhibition, 48 h
endpoint: TGI (µM)
Write the number in µM without appending the unit.

IN: Which value of TGI has been reported for [Br][Pb]([c]1ccccc1)([c]1ccccc1)[c]1ccccc1 in the records?
OUT: 0.303

IN: Which value of TGI has been reported for Nc1nc(Sc2ccc([N+](=O)[O-])c3nonc23)c2[nH]cnc2n1 in the records?
OUT: 12

IN: Which value of TGI has been reported for NC(=NCCCCCCN=C(N)/N=C(\N)Nc1ccc(Cl)cc1)/N=C(\N)Nc1ccc(Cl)cc1 in the records?
OUT: 5.49

IN: Which value of TGI has been reported for CC(=O)c1csc2c1C(=O)c1ccccc1C2=O in the records?
OUT: 5.22

====

system: CAKI-1 renal; assay: NCI tumour cell line growth inhibition, 48 h
# TGI listing for each entry below

Recorded TGI, per entry:
ClC1=NSSC1(Cl)Cl: 34.8 µM
O=c1cc(-c2cccc(OC(F)(F)F)c2)[nH]c2ccc(N3CCCC3)cc12: > 100 µM
O=C(/C=C/c1ccccc1)c1ccc(Cl)cc1Cl: 64 µM
COc1ccc(-c2nsc3c2NC(=O)CC3c2ccsc2)cc1 (stereo not given): > 100 µM
CC(C)(Oc1ccc(-c2cccc3ccccc23)cc1)C(=O)O: > 100 µM

IN: Which value of TGI has been reported for COC(=O)Cc1cc(=O)n2c3ccccc3n(C)c2c1C#N in the records?
OUT: > 100 µM

IN: Which value of TGI has been reported for CC(C)(C)OC(=O)Cn1ncn(NC(=O)Cc2ccccc2)c1=S in the records?
OUT: > 10 µM

====

system: 786-0 renal; experiment: NCI tumour cell line growth inhibition, 48 h
endpoint: TGI

Recorded TGI, per entry:
CC(=O)ON(OCc1ccc2ccccc2c1)C(C)=O: > 100 µM
COC(=O)C(=O)C(C(=O)C(=O)Nc1ccc([N+](=O)[O-])cc1)c1nc2ccccc2[nH]c1=O (stereo not drawn): > 100 µM

We next turn to a different compound, shown below.
IN: Which value of TGI has been reported for C=CCNC(=S)NNC(=O)c1c(C)nc2sccn12 in the records?
OUT: > 100 µM

====

# TGI listing for each entry below
test system: A498 renal; assay: NCI tumour cell line growth inhibition, 48 h

IN: Can you look up TGI on A498 renal for CC(C)(Oc1ccc(-c2cccc3ccccc23)cc1)C(=O)O ?
OUT: > 100 µM

IN: Can you look up TGI on A498 renal for C=CCC(N[C@@H](CO)c1ccccc1)c1ccc2ccccc2n1 (stereo partly specified) ?
OUT: > 100 µM

IN: Can you look up TGI on A498 renal for Nc1nc(N)c2nc(CN(C=O)c3ccc(C(=O)O)cc3)cnc2n1 ?
OUT: > 79.9 µM

IN: Can you look up TGI on A498 renal for CCOc1ccc(C2=NN(CC)C(=O)C(C3C(=O)N(c4ccccc4)N=C3C)C2)cc1 (stereo unspecified) ?
OUT: > 100 µM

IN: Can you look up TGI on A498 renal for O=[N+]([O-])c1cccc(/C=N/Nc2ccc3ccccc3n2)c1O ?
OUT: > 66.9 µM

IN: Can you look up TGI on A498 renal for Cc1cc(NCCCCCCCNc2cc(C)nc3cc(N)ccc23)c2ccc(N)cc2n1 ?
OUT: > 100 µM

IN: Can you look up TGI on A498 renal for ClC1=NSSC1(Cl)Cl ?
OUT: > 100 µM

====

system: SNB-75 CNS; assay: NCI tumour cell line growth inhibition, 48 h
// label = yes if TGI is not less than 30 µM, otherwise no

These recorded examples may help you get a feel for the data.
CCN(CC)c1ccc(/C=N/NC(=O)Cc2ccc(Nc3ccnc(C(F)(F)F)c3)cc2)c(O)c1: yes
COc1ccc2nc3ccccc3c(NCCNCCO)c2c1: no

IN: Dear colleague, could you confirm whether COC(=O)/C=C(C)/C=C\COC1CCCCO1 (configuration not stated) has TGI at or above 30 µM?
OUT: yes

IN: Dear colleague, could you confirm whether Clc1ccc(C=Nc2ccc(-c3nc4ccccc4[nH]3)cc2)cc1 has TGI at or above 30 µM?
OUT: yes

====

tested on: HCT-15 colon; assay: NCI tumour cell line growth inhibition, 48 h; in the data active = GI50 below about 0.43 µM; inactive = the rest
One label from this list, please: active, inactive

[CH3][Sn]([CH3])([CH3])[S]C(=S)N1CCOCC1: inactive
COc1cc(N=Nc2cc(Cc3ccc(N(C)C)cc3)c(N)cc2N(C)C)c2ncccc2c1: active
Nc1ncn([C@H]2CC(O)[C@@H](CO)S2)c(=O)n1 (some centres undefined): inactive
CCc1ccc2c(c1)C(=O)c1c-2n(CCCN)c(=O)c2cc(OC)c(OC)cc12: inactive
CN1CCCCC1CCN1c2ccccc2Sc2ccc(Br)cc21 (centres undefined): inactive
CC(C)=C[C@@H]1C[C@H](C)[C@H]2CC[C@H](C)c3c(O)c(OC4OC(C)C(O)C(O)C4O)c(C)c1c32 (some centres undefined): inactive
N#C[S-].[La+3].c1ccc(-c2ccccn2)nc1.c1ccc(-c2ccccn2)nc1.c1ccc(-c2ccccn2)nc1: inactive
COc1cc2c(c(OC)c1OC)-c1cc(I)c(O)cc1[C@@H](NC(C)=O)CC2: active

Note: attention shifts to another entry.
IN: So what was the verdict on COc1cc(-c2nc(-c3ccccc3)c(-c3ccccc3)[nH]2)cc(OC)c1O in this test?
OUT: inactive

====

test system: HL-60(TB) leukemia; experiment: NCI tumour cell line growth inhibition, 48 h
endpoint: TGI

Cc1nc2ccc(NCCN(C)C)c3c(=O)c4ccccc4n1c23: > 47.5 µM
CNC(=O)OCc1cnc([N+](=O)[O-])n1C: > 100 µM
COc1cc2c(oc(=O)c3c4occc4cc(OC)c23)c2cccc(O)c12: > 100 µM
C=C1OC2OC(C)C(NC(=O)OCC(Cl)(Cl)Cl)C(OC(C)=O)C2O1 (stereo not drawn): > 100 µM
CCCOC(=O)c1cc(O)c(O)c(O)c1: > 100 µM
O=[N+]([O-])c1ccccc1N=Nc1c(O)[nH]c2c(Cl)cccc12: > 100 µM

IN: Can you look up TGI on HL-60(TB) leukemia for Nc1nc(SCc2ccccc2Cl)c2ncn(C3OC(CO)C(O)C3O)c2n1 (stereo not drawn) ?
OUT: > 100 µM

IN: Can you look up TGI on HL-60(TB) leukemia for S=C(NCc1ccccn1)N/N=C/c1ccccn1 ?
OUT: < 0.01 µM

IN: Can you look up TGI on HL-60(TB) leukemia for Cc1cc(Cl)ccc1N=C1NC(=O)C(CC(=O)Nc2cccc(Cl)c2)S1 (stereo not drawn) ?
OUT: > 100 µM

IN: Can you look up TGI on HL-60(TB) leukemia for O=c1cc(-c2ccccc2)oc2ccc(Cl)cc12 ?
OUT: > 46.4 µM

IN: Can you look up TGI on HL-60(TB) leukemia for CC(C)(C)N/N=C(/Cc1nc2c3c(ccc2[nH]c1=O)C(=O)c1ccccc1C3=O)C(=O)NC1=C(Cl)C(=O)c2ccccc2C1=O ?
OUT: > 100 µM

IN: Can you look up TGI on HL-60(TB) leukemia for O=C1Cc2cc3ccccc3nc2-c2ccccc2N1 ?
OUT: > 100 µM

IN: Can you look up TGI on HL-60(TB) leukemia for N=C(N)c1ccc2oc3ccc(C(=N)N)cc3c(=O)c2c1 ?
OUT: > 100 µM

====

system: DU-145 prostate; assay: NCI tumour cell line growth inhibition, 48 h
# TGI listing for each entry below

Cc1nc2c(C)ccc([N+](=O)[O-])c2c(NCCCN(C)C)c1C: > 100 µM
O=C(Nc1ccn(C2CC(O)C(COC(c3ccccc3)(c3ccccc3)c3ccccc3)O2)c(=O)n1)c1ccccc1 (stereo unspecified): 17.8 µM
CN(C)C(=O)C(F)(F)C(c1ccccc1)C1C(=O)N(C)C(=O)N(C)C1=O (stereo unspecified): > 100 µM
COc1ccc(-c2nsc3c2NC(=O)CC3c2ccsc2)cc1 (stereo unspecified): 2.87 µM
CO[C@@]12C[C@H](CNC(=O)c3ccc[nH]3)O[C@@H]1NC(=O)N2: > 100 µM
CCc1ccc2c(c1)C(=O)c1c-2n(CCCN)c(=O)c2cc(OC)c(OC)cc12: 3.07 µM
CC(=O)O[C@H]1[C@@H](N2CCOCC2)C[C@H]2[C@@H]3CC=C4C[C@@H](N5CCCC5)CC[C@]4(C)[C@H]3CC[C@@]21C: > 100 µM
CSc1c(C(C)=O)c(O)n(-c2ccc(C)cc2)c(=O)c1C#N: > 100 µM
CC(C)(C)OC(=O)Cn1ncn(NC(=O)Cc2ccccc2)c1=S: > 10 µM
CC(=O)ON(OCc1ccc2ccccc2c1)C(C)=O: > 100 µM

We next turn to a different compound, shown below.
IN: Which value of TGI has been reported for CC1(C)N=C(C(N)=O)c2[nH]cnc2N1 in the records?
OUT: > 100 µM
